Would you kindly list sensitivity under 10 cells for each of these molecules?
system: HPV-16; test: qPCR sensitivity against HPV-HNSCC tumor samples diluted among 10 ng normal human DNA; details: 32 HPV-HNSCC tumor samples, 66 pg DNA
Give bare numbers, in %.

// worked examples, sensitivity under 10 cells included
{"MOLECULE": "HR E5L2-4: primer/probe set for junction between E5 and L2, SEQ ID NO: 55-57 (same as SEQ ID NO: 4-6) (nucleic acid, chemistry not given here) DNA 1: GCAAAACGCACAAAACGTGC DNA 2: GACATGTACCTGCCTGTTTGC DNA 3: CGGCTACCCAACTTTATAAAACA", "MEASURED RESULT": 50.0}
{"MOLECULE": "BR E6-1: HPV-16 E6 region (172-373 bp) primer/probe set, SEQ ID NO: 58-60 (nucleic acid, chemistry not given here) DNA 1: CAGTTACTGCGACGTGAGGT DNA 2: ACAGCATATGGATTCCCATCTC DNA 3: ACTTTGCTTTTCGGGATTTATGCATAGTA", "MEASURED RESULT": 46.9}

Record sensitivity under 10 cells per entry; entries follow.
1. BR E1-6: HPV-16 E1 region primer/probe set, SEQ ID NO: 43-45 (nucleic acid, chemistry not given here) DNA 1: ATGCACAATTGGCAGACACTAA DNA 2: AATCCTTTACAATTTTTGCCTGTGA DNA 3: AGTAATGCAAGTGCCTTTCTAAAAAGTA
2. BR E1-5: HPV-16 E1 region primer/probe set, SEQ ID NO: 40-42 (same as SEQ ID NO: 1-3) (nucleic acid, chemistry not given here) DNA 1: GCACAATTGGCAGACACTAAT DNA 2: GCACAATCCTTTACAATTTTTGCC DNA 3: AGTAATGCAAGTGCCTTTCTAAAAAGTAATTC
3. E7: previously designed (historical) HPV-16 E7 primers and Taqman probe, SEQ ID NO: 10-12; part of CLIA test (nucleic acid, Taqman probe, labels not given here, part of CLIA test) DNA 1: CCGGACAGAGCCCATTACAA DNA 2: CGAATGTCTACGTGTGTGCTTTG DNA 3: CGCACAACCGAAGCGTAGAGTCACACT

*A*
1. 62.5
2. 68.7
3. 68.8
